hCCL1 (100 nM) residual response in %, Protocol #2, mAb 0.4 µg/mL (2.67 nM) listing for selected binders.
- Tgt: human CCR8 (human, UniProt P51685 1-355)
- Experiment Notes: cell-based or functional assay
Write the value in % as a bare number.

Task item: Recorded hCCL1 (100 nM) residual response in %, Protocol #2, mAb 0.4 µg/mL (2.67 nM) for anti-CCR8 mAb 2-1 (antibody, V domains shown) VH: KVQLQQSGPELVKPGASVKISCKTSGYTFTEYTIHWVQQIHGKSPEWIGGINPNGDTRYDQKFKGKATLTIDKSSSTAYMELRSLTSEDSAVYYCARVARFYGISPYAMDYWGQGTSVTVSS VL: DVVMTQTPLSLPVSLGDQASISCRCTQSLLHSNGDTYLHWYLQKPGQSPNLLIYKVSNRFSGVPDRFSGSGSGTDFTLKINRVEAEDLGVYFCSQSTHVPYTFGGGTNLEIK , please?
Reply: 93

Task item: Recorded hCCL1 (100 nM) residual response in %, Protocol #2, mAb 0.4 µg/mL (2.67 nM) for anti-CCR8 mAb 2-10 (antibody, V domains shown) VH: QVQVQQSGAELARPGASVKMSCKASGYTFTTYAMHWVKQRPGQGLEWIGHINPSSGYSNYNQKFKDKATLTADKSSSTAYMQLSSLTSEDSAVYYCARSEVRRGYFDVWGAGTTVTVSS VL: DIQMTQTTSSLSASLGDRVTISCRTSQDIRNYLNWYQQKPDGTVKLLISYTSRLHSGVPSRFSGSGSGTDYSLTISNLEQEDFATYFCQQGNTLPPTFGGGTRVEIK , please?
Reply: 68
